B1: DVL3 (parent)
chain: SDVVDWLYHNVEGFTDRREARKYA

variants of: B1; experiment: protein stability index of a GFP-peptide fusion (GPS, HEK-293T) (PSI 1-6); higher = more stable; settings: c terminus: a fixed tail appended;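 note: lentivirally expressed fusions sorted by FACS into six bins by GFP to DsRed ratio, PSI derived from sequencing read proportions per bin multiplied by bin number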
Record form. Attribute: protein stability index. Fill in for each entry.
Answer field: number only, no words.

Sure, the documented protein stability index for F14P is 3.61

Sure, the documented protein stability index for D5C is 1.84

Sure, the documented protein stability index for E19D is 3.18

Sure, the documented protein stability index for E12K is 3.54

Sure, the documented protein stability index for H9Y is 3.21

Sure, the documented protein stability index for F14G is 3.96

Sure, the documented protein stability index for R21T is 3.88

Sure, the documented protein stability index for D2N is 3.36

Sure, the documented protein stability index for E19V is 2.66

Sure, the documented protein stability index for A20N is 2.96

Sure, the documented protein stability index for R18Q is 2.94

Sure, the documented protein stability index for E19S is 2.73

Sure, the documented protein stability index for H9I is 2.09

Sure, the documented protein stability index for E12T is 2.63

Sure, the documented protein stability index for A20C is 2.73

Sure, the documented protein stability index for D5F is 2.21

Sure, the documented protein stability index for A24M is 2.68

Sure, the documented protein stability index for D2F is 1.9

Sure, the documented protein stability index for A24P is 3.42

Sure, the documented protein stability index for R17Y is 2.45

Sure, the documented protein stability index for W6C is 3.81

Sure, the documented protein stability index for L7I is 3.01

Sure, the documented protein stability index for D16Q is 3.19

Sure, the documented protein stability index for T15W is 2.74

Sure, the documented protein stability index for R18A is 3.19

Sure, the documented protein stability index for D5P is 3.71

Sure, the documented protein stability index for V4K is 3.46

Sure, the documented protein stability index for R18H is 3.41

Sure, the documented protein stability index for Y8L is 2.27

Sure, the documented protein stability index for V11D is 3.62

Sure, the documented protein stability index for R21F is 2.65

Sure, the documented protein stability index for S1G is 3.78

Sure, the documented protein stability index for V4T is 3.6

Sure, the documented protein stability index for H9V is 2.16

Sure, the documented protein stability index for R21C is 2.31
